biological target: alpha-thrombin (Homo sapiens, UniProt P00734;P00734 P00734:328-363,P00734:364-622); experiment: filter; truncated form; 2 mM MgSO4 buffer
measurement.name: Kd (nM)
Respond with the bare value in nM.

Input GUGUUCACAAGAUAGAGUAGACUAAGUGACAC (ssRNA) [Truncated clone 9] . Output Kd: 2
